// data source = patent US20230146395A1

Property: log10 of IC50; scope: individual compounds
target: Full length human recombinant PIKFYVE (Homo sapiens, UniProt Q9Y2I7); construct: Full length human recombinant PIKFYVE; experiment: Inhibition of PIKfyve (microfluidic electrophoresis kinase assay, PI3P/PS substrate); settings: 12 concentrations
Sequence (Q9Y2I7 whole entry): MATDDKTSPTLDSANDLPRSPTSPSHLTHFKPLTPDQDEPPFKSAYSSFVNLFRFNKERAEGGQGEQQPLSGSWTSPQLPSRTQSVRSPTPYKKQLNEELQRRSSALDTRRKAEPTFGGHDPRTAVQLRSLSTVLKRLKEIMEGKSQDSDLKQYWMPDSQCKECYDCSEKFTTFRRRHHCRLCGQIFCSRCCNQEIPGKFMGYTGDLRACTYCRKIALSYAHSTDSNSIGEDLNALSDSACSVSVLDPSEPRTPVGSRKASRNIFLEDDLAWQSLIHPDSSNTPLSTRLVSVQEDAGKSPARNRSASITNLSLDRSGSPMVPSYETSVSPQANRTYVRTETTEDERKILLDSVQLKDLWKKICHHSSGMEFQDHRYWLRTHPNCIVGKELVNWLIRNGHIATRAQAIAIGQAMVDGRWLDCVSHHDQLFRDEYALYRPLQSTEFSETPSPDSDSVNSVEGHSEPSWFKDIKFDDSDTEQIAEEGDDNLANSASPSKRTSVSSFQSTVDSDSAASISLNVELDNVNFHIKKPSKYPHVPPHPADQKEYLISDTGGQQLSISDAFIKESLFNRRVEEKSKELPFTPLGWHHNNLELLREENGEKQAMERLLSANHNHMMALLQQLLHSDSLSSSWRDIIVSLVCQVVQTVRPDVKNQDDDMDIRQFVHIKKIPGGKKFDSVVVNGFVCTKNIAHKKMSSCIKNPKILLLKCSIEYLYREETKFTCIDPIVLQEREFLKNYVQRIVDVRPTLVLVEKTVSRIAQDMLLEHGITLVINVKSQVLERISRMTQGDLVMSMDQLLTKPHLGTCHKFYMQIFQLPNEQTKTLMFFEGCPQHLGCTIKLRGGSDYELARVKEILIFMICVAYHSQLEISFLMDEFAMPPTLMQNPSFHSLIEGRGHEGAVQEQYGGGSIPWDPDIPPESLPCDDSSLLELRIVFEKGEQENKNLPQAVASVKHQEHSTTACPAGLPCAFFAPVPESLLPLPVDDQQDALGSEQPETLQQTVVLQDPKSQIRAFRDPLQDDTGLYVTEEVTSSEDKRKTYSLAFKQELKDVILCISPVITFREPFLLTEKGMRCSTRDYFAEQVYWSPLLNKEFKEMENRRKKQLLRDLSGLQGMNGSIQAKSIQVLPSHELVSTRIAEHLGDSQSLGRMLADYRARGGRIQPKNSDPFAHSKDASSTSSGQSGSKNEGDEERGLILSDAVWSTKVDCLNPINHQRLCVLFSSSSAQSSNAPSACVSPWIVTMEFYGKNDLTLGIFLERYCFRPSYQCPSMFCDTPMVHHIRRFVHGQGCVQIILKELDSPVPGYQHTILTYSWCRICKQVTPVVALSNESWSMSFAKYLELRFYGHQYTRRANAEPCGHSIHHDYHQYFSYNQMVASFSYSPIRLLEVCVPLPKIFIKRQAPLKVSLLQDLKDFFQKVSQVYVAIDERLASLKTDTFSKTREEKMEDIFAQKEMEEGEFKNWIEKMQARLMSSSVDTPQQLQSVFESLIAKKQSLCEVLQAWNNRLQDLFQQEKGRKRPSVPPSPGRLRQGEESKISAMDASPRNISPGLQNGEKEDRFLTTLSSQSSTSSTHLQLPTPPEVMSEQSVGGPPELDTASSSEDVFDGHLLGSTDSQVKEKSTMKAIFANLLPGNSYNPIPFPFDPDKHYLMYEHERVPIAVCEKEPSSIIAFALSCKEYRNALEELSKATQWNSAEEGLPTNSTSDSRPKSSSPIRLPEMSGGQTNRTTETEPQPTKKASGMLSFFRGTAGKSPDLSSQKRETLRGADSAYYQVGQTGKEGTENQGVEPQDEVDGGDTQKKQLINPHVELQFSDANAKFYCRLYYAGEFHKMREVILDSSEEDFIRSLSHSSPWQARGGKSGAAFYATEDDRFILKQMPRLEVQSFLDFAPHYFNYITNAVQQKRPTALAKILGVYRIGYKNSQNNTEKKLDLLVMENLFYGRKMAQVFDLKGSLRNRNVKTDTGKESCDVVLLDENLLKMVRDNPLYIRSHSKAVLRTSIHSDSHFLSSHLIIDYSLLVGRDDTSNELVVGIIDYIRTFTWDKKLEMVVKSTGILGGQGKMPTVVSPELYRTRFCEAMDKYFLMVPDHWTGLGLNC
Structures can show the parent of a compound that is named as a salt.
readout.kind: log10 of IC50 (log10 of the value in nM)

1) CN(CC1CC1)C(=O)c1cc2nc(Nc3cc(-c4ccccc4)[nH]n3)nc(N3CCOCC3)c2o1 :: 1.86
2) c1ccc(-c2cc(Nc3nc(N4CCOCC4)c4oc(-c5ccncc5)cc4n3)on2)cc1 :: 0.30
3) CN1CCCC(NC(=O)c2cc3nc(-n4cc(-c5ccccc5)cn4)nc(N4CCOCC4)c3o2)C1 (stereo not drawn) :: 1.83
4) Cc1cccc(-c2cnn(-c3nc(N4CCOCC4)c4oc(-c5ccn(C)n5)cc4n3)c2)c1 :: -0.30
5) Clc1cc2nc(Nc3cc(-c4ccccc4)n[nH]3)nc(N3CCOCC3)c2o1 [Compound 11, hydrochloride] :: 1.74
6) Cc1ncc(-c2cc3nc(-n4ccc(-c5ccccc5)n4)nc(N4CCOCC4)c3o2)[nH]1 :: 1.03
7) Cc1cc(-c2oc3c(N4CCOCC4)nc(-n4ccc(-c5ccccc5)n4)nc3c2C)[nH]n1 :: 1.93
8) c1ccc(-c2ccn(-c3nc(N4CCOCC4)c4oc(-c5ccncc5)cc4n3)n2)cc1 :: 2.20
9) C=CC(=O)NCCn1nc(-c2cc3nc(-n4cc(-c5cccc(C)c5)cn4)nc(N4CCOCC4)c3o2)cc1C :: -0.05
10) c1ccc(-c2cc(Nc3nc(N4CCOCC4)c4oc(-c5ccncc5)cc4n3)no2)cc1 :: 0.90
11) c1ccc(-c2cc(Nc3nc(N4CCOCC4)c4oc(CN5CCCCC5)cc4n3)[nH]n2)cc1 :: 2.74
12) O=C(NC1CC1)c1cc2nc(-n3cc(-c4ccccc4)cn3)nc(N3CCOCC3)c2o1 :: 1.84
13) Cc1cc(Nc2nc(N3CCOCC3)c3oc(-c4ccncc4)cc3n2)[nH]n1 :: 2.45
14) Cc1cccc(-c2cnn(-c3nc(N4CCOCC4)c4oc(C(=O)NC5CCOCC5)cc4n3)c2)c1 :: -0.05
15) CS(=O)(=O)NC(=O)c1cc2nc(Nc3cc(-c4ccccc4)n[nH]3)nc(N3CCOCC3)c2o1 [Compound 65, hydrochloride] :: 2.37
16) c1cc(-c2cc3nc(Nc4cc(CC5CC5)n[nH]4)nc(N4CCOCC4)c3o2)ccn1 [Compound 69, hydrochloride] :: 2.53
17) CN(C)Cc1cc2nc(Nc3cc(-c4ccccc4)n[nH]3)nc(N3CCOCC3)c2o1 :: 2.93
